The measured values listed here are drawn from patent US20020143013A1.

Target: HCMV polymerase (Human cytomegalovirus, UniProt P08546)
Construct: made in house; host or cells: recombinant baculovirus-infected SF-9 cells
Sequence (P08546 whole entry): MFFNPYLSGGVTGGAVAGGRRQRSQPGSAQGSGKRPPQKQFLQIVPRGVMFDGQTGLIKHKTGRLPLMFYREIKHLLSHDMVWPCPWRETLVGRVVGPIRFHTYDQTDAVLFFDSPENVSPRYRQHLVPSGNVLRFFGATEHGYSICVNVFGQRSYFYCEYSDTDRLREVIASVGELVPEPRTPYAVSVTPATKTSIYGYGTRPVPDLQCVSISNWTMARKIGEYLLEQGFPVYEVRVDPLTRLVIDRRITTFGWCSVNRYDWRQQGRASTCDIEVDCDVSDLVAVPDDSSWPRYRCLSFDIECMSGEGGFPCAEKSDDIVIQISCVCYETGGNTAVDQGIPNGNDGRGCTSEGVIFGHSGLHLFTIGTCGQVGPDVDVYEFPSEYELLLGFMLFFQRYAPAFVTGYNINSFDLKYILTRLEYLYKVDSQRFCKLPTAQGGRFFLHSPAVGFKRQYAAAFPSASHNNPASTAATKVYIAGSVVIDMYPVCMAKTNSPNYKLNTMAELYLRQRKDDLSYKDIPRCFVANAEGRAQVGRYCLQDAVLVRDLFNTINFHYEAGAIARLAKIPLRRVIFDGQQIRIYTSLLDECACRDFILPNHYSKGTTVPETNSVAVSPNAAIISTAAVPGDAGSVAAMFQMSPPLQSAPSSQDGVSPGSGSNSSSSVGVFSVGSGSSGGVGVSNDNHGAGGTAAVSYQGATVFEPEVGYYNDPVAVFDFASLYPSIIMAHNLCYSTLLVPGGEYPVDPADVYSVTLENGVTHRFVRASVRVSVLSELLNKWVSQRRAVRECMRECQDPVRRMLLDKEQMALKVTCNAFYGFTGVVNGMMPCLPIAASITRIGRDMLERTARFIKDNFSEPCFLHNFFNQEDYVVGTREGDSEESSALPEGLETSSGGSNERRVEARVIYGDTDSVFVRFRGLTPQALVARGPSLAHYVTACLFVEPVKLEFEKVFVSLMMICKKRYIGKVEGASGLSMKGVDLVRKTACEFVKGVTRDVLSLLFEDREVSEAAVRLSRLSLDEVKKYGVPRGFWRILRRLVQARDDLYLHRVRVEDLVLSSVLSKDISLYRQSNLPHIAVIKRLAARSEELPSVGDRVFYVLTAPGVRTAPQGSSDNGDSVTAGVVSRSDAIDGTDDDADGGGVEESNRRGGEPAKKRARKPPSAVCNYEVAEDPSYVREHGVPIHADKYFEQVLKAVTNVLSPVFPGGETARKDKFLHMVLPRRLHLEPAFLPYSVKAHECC
Experiment: HCMV polymerase assay (modified scintillation proximity assay)
Format: biochemical
Details: modified SPA assay; compounds diluted in 100% DMSO; 4.5 mM DTT in polymerase buffer
Assay Metric: IC50 (µM)

- O=C(NCc1ccc(Cl)cc1)c1cn2c3c(cc(CN4CCOCC4)cc3c1=S)OCC2: 0.06
